Entry source: patent US7879881B2

Item-by-item account of IC50
- Target Or Test System: GP IIb/IIIa (Homo sapiens, UniProt P05106+P08514)
- Sequence (P08514 32-887 limits assumed): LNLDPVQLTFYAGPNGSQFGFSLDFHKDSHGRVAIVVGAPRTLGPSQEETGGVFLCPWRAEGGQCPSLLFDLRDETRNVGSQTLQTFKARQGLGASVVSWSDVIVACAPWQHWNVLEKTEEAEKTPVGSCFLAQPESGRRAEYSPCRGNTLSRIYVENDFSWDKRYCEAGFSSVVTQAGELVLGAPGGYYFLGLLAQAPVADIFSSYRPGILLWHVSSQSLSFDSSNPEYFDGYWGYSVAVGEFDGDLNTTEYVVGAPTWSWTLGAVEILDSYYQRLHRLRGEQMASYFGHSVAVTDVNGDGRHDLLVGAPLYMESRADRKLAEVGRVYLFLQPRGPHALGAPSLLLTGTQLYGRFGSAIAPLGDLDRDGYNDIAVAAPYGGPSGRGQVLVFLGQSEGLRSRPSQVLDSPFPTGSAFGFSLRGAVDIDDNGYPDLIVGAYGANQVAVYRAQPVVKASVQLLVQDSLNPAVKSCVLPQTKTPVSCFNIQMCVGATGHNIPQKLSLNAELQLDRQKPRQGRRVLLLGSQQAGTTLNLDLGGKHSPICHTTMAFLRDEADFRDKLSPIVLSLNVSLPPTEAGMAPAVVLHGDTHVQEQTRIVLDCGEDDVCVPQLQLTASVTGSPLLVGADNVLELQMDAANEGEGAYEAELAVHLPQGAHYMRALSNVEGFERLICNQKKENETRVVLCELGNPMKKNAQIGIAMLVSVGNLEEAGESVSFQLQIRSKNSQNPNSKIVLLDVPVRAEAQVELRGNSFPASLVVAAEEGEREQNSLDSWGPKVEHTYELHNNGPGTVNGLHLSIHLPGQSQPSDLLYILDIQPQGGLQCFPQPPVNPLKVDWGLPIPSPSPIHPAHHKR
- Sequence (P08514 891-1039 partner limits assumed): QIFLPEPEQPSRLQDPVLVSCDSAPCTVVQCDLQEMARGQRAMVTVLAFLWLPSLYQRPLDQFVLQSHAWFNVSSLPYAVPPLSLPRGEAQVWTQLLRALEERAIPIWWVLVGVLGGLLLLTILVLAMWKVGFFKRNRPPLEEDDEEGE
- Sequence (P05106 27-788): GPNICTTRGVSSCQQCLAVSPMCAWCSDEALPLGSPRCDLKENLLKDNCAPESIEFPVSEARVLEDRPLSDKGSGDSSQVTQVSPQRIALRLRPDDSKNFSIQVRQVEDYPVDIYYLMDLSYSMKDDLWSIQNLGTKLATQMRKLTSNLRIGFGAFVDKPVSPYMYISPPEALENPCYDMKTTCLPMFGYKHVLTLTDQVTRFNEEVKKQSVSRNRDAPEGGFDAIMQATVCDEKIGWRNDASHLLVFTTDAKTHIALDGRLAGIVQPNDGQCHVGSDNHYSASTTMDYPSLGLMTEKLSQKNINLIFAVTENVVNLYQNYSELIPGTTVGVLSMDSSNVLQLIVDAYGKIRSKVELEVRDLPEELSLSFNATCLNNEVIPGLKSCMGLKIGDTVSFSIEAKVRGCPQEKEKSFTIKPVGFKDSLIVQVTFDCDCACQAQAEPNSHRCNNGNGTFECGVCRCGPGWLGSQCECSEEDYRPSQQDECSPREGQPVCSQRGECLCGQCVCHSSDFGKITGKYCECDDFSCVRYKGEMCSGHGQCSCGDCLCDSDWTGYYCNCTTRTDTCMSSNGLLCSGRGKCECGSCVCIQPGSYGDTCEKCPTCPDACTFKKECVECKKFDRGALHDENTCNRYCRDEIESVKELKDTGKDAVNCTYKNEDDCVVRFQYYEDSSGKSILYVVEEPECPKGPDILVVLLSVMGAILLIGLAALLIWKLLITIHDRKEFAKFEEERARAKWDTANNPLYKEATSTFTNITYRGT
- Protocol Summary: In Vitro Solid Phase Purified GP IIb/IIIa Binding Assay (biotinylated fibrinogen)
- Measurement Context: biotinylated fibrinogen binding to immobilized purified GP IIb/IIIa; mean ± spread; read-out: αIIbβ3 IC50
Report the value in µM with no unit label.

Known results for compounds:
>  <Compound>
O=C(O)CC(CCC1CCN(C(=O)c2cccc(NC3=NCCCC3)c2)CC1)c1cnc2ccccc2c1 (centres unmarked) [Cpd 50]

>  <IC50 [µM]>
0.19

$$$$
>  <Compound>
O=C(O)CC(c1cnc2c(c1)CCCC2)C1CCN(C(=O)CCCc2ccc3c(n2)NCCC3)CC1 (single isomer, unassigned) [Cpd 58b]

>  <IC50 [µM]>
35.5

$$$$
>  <Compound>
COc1ccc(C(CCC2CCN(C(=O)CCCNc3ccccn3)CC2)CC(=O)O)cn1 (centres unmarked) [Cpd 25]

>  <IC50 [µM]>
8.67

$$$$

// moving on: another record for IC50
Recorded IC50 for O=C(O)CC(CC1CCN(C(=O)CCc2ccc3c(n2)NCCC3)CC1)C1CNc2ccccc2C1 (single isomer, unassigned) [Cpd 19-4] on GP IIb/IIIa (Homo sapiens, UniProt P05106+P08514) was 4.86
